- protocol notes: Clearance in Balb/c mouse at 2.5 mg/kg, iv measured upto 24 hrs by LC-MS/MS analysis
- Type: ADME, organism-based
- assay setup: in vivo
readout label: clearance (mL/min/kg)

• COc1cc(C(=O)NC[C@](O)(c2cc(C(C)(C)O)c(F)c(-c3ccc(F)cc3)n2)C(F)(F)F)cc2cc(C)nnc12 = 10.6

* * *

- protocol notes: Clearance in Beagle dog at 0.5 mg/kg, iv measured upto 24 hrs by LC-MS/MS analysis
- Assay type: ADME, organism-based, Canis lupus familiaris
- assay setup: in vivo
readout label: clearance (mL/min/kg)

• COc1cc(C(=O)NC[C@](O)(c2cc(C(C)(C)O)c(F)c(-c3ccc(F)cc3)n2)C(F)(F)F)cc2cc(C)nnc12 = 5.62

Taken from ChEMBL document CHEMBL5550217.
